- Test system: NCI-H460 lung
- TEST: NCI tumour cell line growth inhibition, 48 h
OUTCOME_MEASURE: TGI

- O=C1/C(=C/c2cccc(Cl)c2)CCCc2ccccc21: 31.2 µM
- CSc1nc(-c2ccc(Cl)cc2)c(C#N)c(=O)n1C1OC(COC(C)=O)C(OC(C)=O)C(OC(C)=O)C1OC(C)=O (stereo unspecified): > 100 µM
- CCc1nc(N)nc(N)c1-c1ccc(Cl)c([N+](=O)[O-])c1: > 100 µM
- Clc1c(Cl)[n+](Cc2ccc3ccccc3c2)cn1Cc1ccc2ccccc2c1: 2.98 µM
- CC(C)CC(NC(=O)C(C)(CI)Cc1ccccc1)C(=O)Nc1ccccc1 (stereo unspecified): > 100 µM
- COc1ccc(Nc2nc3cc(N)cc(N)c3nc2-c2ccccc2)cc1: 89.9 µM
- CNC(=O)c1c(C)oc2cc(Oc3ncnc4cc(OC)c(OC)cc34)ccc12: > 100 µM
- COC(=O)c1c([N+](=O)[O-])ncn1[C@H]1OC[C@@H](OC(C)=O)[C@@H](OC(C)=O)[C@@H]1OC(C)=O: > 100 µM
- CC1=C(C(=O)OC2CC3CCC2(C)C3(C)C)C2Nc3ccccc3N(C)C2O1 (stereo unspecified): 3.7 µM
- Cc1ccc(O)c(Cc2nc3ccccc3nc2-c2cccc(Cl)c2)c1: > 100 µM
- COc1cc2c(c(OC)c1OC)-c1ccc(OC)c(=O)cc1C(NC(=O)COc1ccccc1)CC2 (stereo unspecified): > 10.6 µM
- N#CC12C(=O)N3C(=NC(c4ccco4)NC3c3ccco3)C1(C#N)C(c1ccco1)NC1=C2CCCC1 (stereo unspecified): > 100 µM
- COc1ccccc1Nc1cc(O)c2c(=O)cc(-c3ccccc3)oc2c1: 12 µM
- O=c1nc2n3c4c(cccc4nc-2c(=O)[nH]1)CCC3: > 100 µM
- CC(=O)Nc1ccc2c(c1)/C(=C\c1ccc([N+](C)(C)C)cc1)c1ccccc1-2: > 100 µM
- COc1cc(C(=O)NC2CCc3cc(OC)c(OC)c(OC)c3-c3ccc(OC)c(=O)cc32)cc(OC)c1OC (stereo unspecified): 15.3 µM
- Nc1nc(Cl)cc(NCC2(O)CCC2)n1: > 100 µM
- COc1cccc(/C=N/n2c(Cc3ccccc3)n[nH]c2=O)c1: > 100 µM
- O=C1Nc2c(ccc(Cl)c2Cl)/C1=C/c1cc(Br)c(O)c(Br)c1: 16.9 µM
- O=C(O)c1cc(-c2ccc3cc4c(cc3c2)OCO4)nc2ccccc12: 42.7 µM
- COc1ccc(CNc2cnc3cc(N)ccc3n2)cc1: > 100 µM

---

Below is a list of entries, each paired with its recorded TGI value.
- System: M19-MEL melanoma
- TEST: NCI tumour cell line growth inhibition, 48 h
OUTCOME_MEASURE: TGI

- CC(=O)Oc1ccccc1: > 100 µM
- O=C(CCC(=O)Nc1ccc(Cl)c(Cl)c1)Cc1nc2ccccc2o1: > 100 µM
- CCC[C@H]1O[C@@H]2CC(=O)O[C@@H]2C2=C1C(=O)C=CC2=O: 41.7 µM
- CC(=O)Nc1ccc(/C=C/C(=O)c2sc(-c3cccnc3)nc2C)cc1: > 100 µM
- C/C(=N\N=C(N)N)C(CN1CCCCC1)C(c1ccccc1)c1c(O)c2ccccc2oc1=O (stereo unspecified): > 100 µM
- NCCSSCc1ccccc1CSSCCN: > 100 µM
- CC1=N/C(=C/c2ccc3c(c2)OCO3)C(=O)O1: > 100 µM
- COC(COC(N)=O)C1=C(N2CC2)C(=O)C(C)=C(N2CC2)C1=O (stereo unspecified): 0.507 µM
- CC(C)N(C(=O)C12C3C4C5(C#N)C3C1(C#N)C5C42C#N)C(C)C (stereo unspecified): > 100 µM
- COc1cc(C2C(Cl)C(=O)N2NC(=O)Cc2ccccc2)cc(Br)c1O (stereo unspecified): > 100 µM
- CNC(=O)OCc1nc(SC)n(C)c1CO: > 100 µM

---

Below is a list of entries, each paired with its recorded TGI value.
- System: DMS 273 small cell lung
- TEST: NCI tumour cell line growth inhibition, 48 h
OUTCOME_MEASURE: TGI

* COc1ccc(CNc2cnc3cc(N)ccc3n2)cc1 | > 100 µM
* C=CCNC(=O)NCCCCC(NC(C)=O)C(=O)NCc1ccccc1 (centres undefined) | > 100 µM
* CC(C)N(C(=O)C12C3C4C5(C#N)C3C1(C#N)C5C42C#N)C(C)C (centres undefined) | > 100 µM
* COc1cc2cc(OC(C)=O)c3cc4c(cc3c2c(OC)c1OC)OCO4 | > 100 µM
* COc1cccc2c1c1ccc3c(c1n2C)C(=O)C=CC3=O | 32.2 µM
* Cc1cnc2ccc(C)c([N+](=O)[O-])c2c1NCCCN(C)C | > 100 µM
* CCC[C@H]1O[C@@H]2CC(=O)O[C@@H]2C2=C1C(=O)C=CC2=O | 19.5 µM
* O=C1[C@H]2ON(c3ccccc3)C(c3ccc([N+](=O)[O-])cc3)[C@H]2C(=O)N1c1ccc(Cc2ccc(N3C(=O)[C@@H]4ON(c5ccccc5)C(c5ccc([N+](=O)[O-])cc5)[C@@H]4C3=O)cc2)cc1 (some centres undefined) | > 100 µM
* COC(=O)[C@@H]1c2cc3c(c(O)c2[C@@H](OC2OC(C)C(OC)C(C)(OC)C2OC)C[C@]1(C)O)C(=O)c1c(O)cc2c(c1C3=O)O[C@H]1O[C@]2(C)[C@H](O)[C@@H](N(C)C)[C@@H]1O (some centres undefined) | 0.0282 µM
* COc1ccc(Cc2c3cc(O)c(=O)cc-3ccn2C)cc1 | > 100 µM
* C=C(CCCCC)CN1CCCC1C(C)=O (centres undefined) | 53.1 µM
* COc1ccc(C(c2ccccc2)(c2ccc(OC)cc2)N2C(=O)NC3C(CCCCC(=O)NCCCCCCOP(OCCC#N)N(C(C)C)C(C)C)SCC32)cc1 (centres undefined) | 25.3 µM
* CSc1nc(-c2ccc(Cl)cc2)c(C#N)c(=O)n1C1OC(COC(C)=O)C(OC(C)=O)C(OC(C)=O)C1OC(C)=O (centres undefined) | > 100 µM
* CC(C)(C)C1=CC(=C(P(=O)(O)O)P(=O)(O)O)C=C(C(C)(C)C)C1=O | > 50 µM

---

Below is a list of entries, each paired with its recorded TGI value.
- Test system: HCT-15 colon
- TEST: NCI tumour cell line growth inhibition, 48 h
OUTCOME_MEASURE: TGI

• CCOC1OC(COC(=O)C(C)(C)C)C(O)CC1n1cc(C)c(=O)[nH]c1=O (stereo not drawn) = > 100 µM
• COc1ccc2c(c1)Cc1c(NCCN(C)C)ccc(C(=O)NCCCN(C)CCCNC(=O)c3ccc(NCCN(C)C)c4c3Nc3ccc(OC)cc3C4)c1N2 = > 74.3 µM
• COc1ccc(C2(Cl)c3ccccc3N(c3ccccc3)c3ccccc32)cc1 = 10.8 µM
• CCOC(=O)C1(C#N)OC(=O)c2cnccc21 (stereo not drawn) = > 100 µM
• Cc1ccc(O)c(NC(=O)c2cccc(Nc3ccnc(C(F)(F)F)c3)c2)c1 = 42.8 µM
• COc1cc2c(c(OC)c1OC)-c1ccc(OC)c(=O)cc1C(NC(=O)COc1ccccc1)CC2 (stereo not drawn) = > 100 µM
• CC(=O)OC[C@H]1CN(OC(C)=O)C[C@@H](n2cc(C)c(=O)[nH]c2=O)O1 = > 100 µM
• O=c1oc2ccc(I)cc2c(=O)n1-c1ccc(Br)cc1F = 7.89 µM
• C=C(Cl)C(Cl)(CBr)CCC(Br)C(C)(C)Br (stereo not drawn) = 9.35 µM
• CNC(=O)c1ccc(N2C(=S)N(c3cnc(C#N)c(C(F)(F)F)c3)C(=O)C23CCC3)cc1F = > 100 µM
• CC1=N/C(=C/c2ccc3c(c2)OCO3)C(=O)O1 = > 100 µM
• OC(CNc1ccnc2cc(Cl)ccc12)CNc1ccnc2cc(Cl)ccc12 = 44.6 µM
• CCN1CCC(O)(c2ccc(Oc3ccc(Cl)cc3)cc2)C(C(=O)c2ccc(Oc3ccc(Cl)cc3)cc2)C1 (stereo not drawn) = 19.9 µM
• CC(=O)NC1C(OC(C)C(=O)NC(C)C(=O)NC(CCC(=O)NCCCCCNc2ccc([N+](=O)[O-])c3[nH]c4ccccc4c(=O)c23)C(N)=O)C(O)C(CO)OC1(C)OCc1ccccc1 (stereo not drawn) = > 100 µM
• CNC(=O)C(C)NC(=O)C(Cc1ccccc1)NC(=O)c1ccccc1 (stereo not drawn) = > 100 µM
• C=CCC1(CN(C)C)CC/C(=C\c2ccc(OC)cc2)C1=O (stereo not drawn) = > 100 µM
• Cc1ccc(CC(Cc2ccccc2C)C(=O)O)c(C(=O)O)c1 (stereo not drawn) = > 100 µM
• O=c1nc2n3c4c(cccc4nc-2c(=O)[nH]1)CCC3 = > 100 µM
• C=CC(=O)Nc1ccc(NC(=O)C=C)c2c1C(=O)c1ccccc1C2=O = > 100 µM
• CC1=NN(c2nc(N)nc(CN3CCOCC3)n2)C(C)(C)C1 = > 100 µM
• C[C@@H]1C[C@H]2[C@@H]3CCC4=CC(=O)C=C[C@]4(C)[C@@]3(F)[C@@H](O)C[C@]2(C)[C@@]1(O)C(=O)CO = > 100 µM
• O=C(/C=C\c1ccccc1O)c1ccc(O)cc1O = > 100 µM
• Cc1nc([N+](=O)[O-])cn1-c1nc2ccccn2c1[N+](=O)[O-] = > 100 µM
